Reported values of hERG current change (%, negative = inhibition) at 1uM for individual entries
- tested.system: human ether-à-go-go-related gene (hERG) potassium channel (human, UniProt Q12809)
- Sequence (Q12809 whole entry, looked up): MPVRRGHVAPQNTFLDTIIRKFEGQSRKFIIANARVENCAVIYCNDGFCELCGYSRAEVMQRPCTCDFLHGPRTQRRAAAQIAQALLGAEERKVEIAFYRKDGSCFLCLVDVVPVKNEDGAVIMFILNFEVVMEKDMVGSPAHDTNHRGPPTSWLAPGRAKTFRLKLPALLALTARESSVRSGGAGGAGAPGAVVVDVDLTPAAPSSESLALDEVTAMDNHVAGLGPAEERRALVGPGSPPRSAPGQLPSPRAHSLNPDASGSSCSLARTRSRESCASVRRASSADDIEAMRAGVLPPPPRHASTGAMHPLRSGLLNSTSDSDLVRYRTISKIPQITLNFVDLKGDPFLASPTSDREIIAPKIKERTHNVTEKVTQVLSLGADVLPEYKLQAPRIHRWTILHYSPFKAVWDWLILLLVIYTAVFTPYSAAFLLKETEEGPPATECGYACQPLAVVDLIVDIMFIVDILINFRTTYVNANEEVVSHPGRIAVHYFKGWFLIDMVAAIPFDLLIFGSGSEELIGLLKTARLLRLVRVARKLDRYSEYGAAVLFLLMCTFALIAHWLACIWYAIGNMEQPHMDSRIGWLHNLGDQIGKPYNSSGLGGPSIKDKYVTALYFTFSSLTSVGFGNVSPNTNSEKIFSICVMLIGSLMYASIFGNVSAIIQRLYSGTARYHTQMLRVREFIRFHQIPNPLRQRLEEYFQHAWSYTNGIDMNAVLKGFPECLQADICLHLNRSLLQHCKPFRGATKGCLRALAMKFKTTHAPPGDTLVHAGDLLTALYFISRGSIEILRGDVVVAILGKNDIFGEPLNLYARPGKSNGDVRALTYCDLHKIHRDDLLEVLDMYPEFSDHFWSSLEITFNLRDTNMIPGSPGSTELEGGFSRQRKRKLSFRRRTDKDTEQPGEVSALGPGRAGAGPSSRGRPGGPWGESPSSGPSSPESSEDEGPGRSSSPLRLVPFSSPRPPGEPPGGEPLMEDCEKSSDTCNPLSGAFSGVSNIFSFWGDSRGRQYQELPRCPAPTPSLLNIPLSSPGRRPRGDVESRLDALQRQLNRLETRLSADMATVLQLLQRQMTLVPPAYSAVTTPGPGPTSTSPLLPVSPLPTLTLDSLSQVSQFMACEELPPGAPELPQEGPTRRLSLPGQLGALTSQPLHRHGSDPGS
- assay.summary: primary screen, population patch clamp on CHO cells stably expressing hERG; higher = less effect of the substance
The campaign covered roughly 310,000 compounds. About 2,200 (0.71%) showed an effect of 50% or more. Effects have a minus sign here. The full list was thinned out, with strong results kept by preference.
Only the number, expressed in %, is required.

CCOC(=O)C1(CCOc2ccccc2)CCN(Cc2ccc(O)c(Cl)c2)CC1 : -2.25
CCOC(=O)C1(CCOc2ccccc2)CCN(Cc2ccc(F)c(OC)c2)CC1 : 5.6
CCOC(=O)C1(Cc2cccc(OC)c2)CCN(Cc2ccc(OC)c(O)c2)CC1 : -16.9
CCOC(=O)C1(CCOc2ccccc2)CCN(Cc2ccc(O)c(OC)c2)CC1 : -69.9

For human ether-à-go-go-related gene (hERG) potassium channel (human, UniProt Q12809), give hERG current change (%, negative = inhibition) at 1uM of the listed compound: `COc1ccc(C2(c3cccc(O)c3OC)CCN(C(C)=O)CC2)cc1O`
17.8

For human ether-à-go-go-related gene (hERG) potassium channel (human, UniProt Q12809), give hERG current change (%, negative = inhibition) at 1uM of the listed compound: CCC(C)NC(=S)Nc1ccccc1OC (stereo not shown)
1.64

For human ether-à-go-go-related gene (hERG) potassium channel (human, UniProt Q12809), give hERG current change (%, negative = inhibition) at 1uM of the listed compound: `CCOC(=O)C1(CCOc2ccccc2)CCN(Cc2ccc(OC)c(O)c2)CC1`
-88.3

For human ether-à-go-go-related gene (hERG) potassium channel (human, UniProt Q12809), give hERG current change (%, negative = inhibition) at 1uM of the listed compound: `O=C(CN1CCN(C(=O)c2ccco2)CC1)NCc1ccc(Cl)cc1`
-35.1

For human ether-à-go-go-related gene (hERG) potassium channel (human, UniProt Q12809), give hERG current change (%, negative = inhibition) at 1uM of the listed compound: `COCCn1c(SCc2ccccc2)nc2c1c(=O)[nH]c(=O)n2C`
11.8

For human ether-à-go-go-related gene (hERG) potassium channel (human, UniProt Q12809), give hERG current change (%, negative = inhibition) at 1uM of the listed compound: `C=C(C)c1cccc(C(C)(C)NC(=O)NC2CC(C)(C)NC(C)(C)C2)c1`
7.67

---

- tested.system: human ether-à-go-go-related gene (hERG) potassium channel (human, UniProt Q12809)
- assay.summary: primary screen, population patch clamp on CHO cells stably expressing hERG; higher = less effect of the substance
In all, about 310,000 compounds went through this assay and about 2,200 (0.71%) showed an effect of 50% or more. Effects have a minus sign here. For the sample, strong results were picked, then their nearest neighbours and some compounds at random.
measured.property: hERG current change (%, negative = inhibition) at 1uM

Example entries and their recorded answers appear below.
Cc1ccc(S(=O)(=O)N2CCC(C(=O)OCC(=O)N(CC(C)C)C3CCS(=O)(=O)C3)CC2)cc1C (stereo not shown) : 10.8%
COc1ccc2[nH]cc(CCNC(=O)CCC3CCCCC3)c2c1 : 1.77%
O=C(NCCCCc1ccccc1)C12CN(Cc3ccccc3)CC1C(c1cccc([N+](=O)[O-])c1)=NO2 (stereo not shown) : 10.9%
Cc1ccc2cc(C#N)c(N3CCN(C(=O)c4ccccc4)CC3)nc2c1 : -6.89%
Cc1ccc2nc(N3CCN(C)CC3)c(C#N)cc2c1 : -10%

Find the measured hERG current change (%, negative = inhibition) at 1uM of `CCn1cc(Br)c(C(=O)N(C)Cc2ccccc2)n1` and report it.
11.4%

Find the measured hERG current change (%, negative = inhibition) at 1uM of `CCN(CCNC(=O)CCCn1nc(C)n2c(cc3sccc32)c1=O)c1ccccc1` and report it.
-1.14%

Find the measured hERG current change (%, negative = inhibition) at 1uM of `Cc1ccc2nc(N3CCN(C(=O)c4cccs4)CC3)c(C#N)cc2c1` and report it.
-51.3%

Find the measured hERG current change (%, negative = inhibition) at 1uM of CCOC(=O)CSc1nc2ccccc2c(=O)n1CC1COc2ccccc2O1 (stereo not shown) and report it.
6.59%

Find the measured hERG current change (%, negative = inhibition) at 1uM of O=C1OC(c2ccccc2)c2ccccc21 (stereo not shown) and report it.
9.85%
